# Population Hoechst High Intensity Objects (%) listing for each entry below
System: Fibroblast
ASSAY_PROCEDURE: Multiplex assay against human fibroblast
Assay type: toxicity, cell-based
PROTOCOL_CONDITIONS: 24 h, 1 µM, compound concentration 1 uM, replicate 2
// note: answer is a bare numeric in %

# example entries with known answers
In: Please look up its Population Hoechst High Intensity Objects (%): "CCCCN(CC)c1nc(C)nc2c1c(C)cn2-c1c(C)cc(C)cc1C.Cl"
Out: 5

In: Please look up its Population Hoechst High Intensity Objects (%): CC[C@H](Nc1ncnc2[nH]cnc12)c1nc2cccc(F)c2c(=O)n1-c1ccccc1 [IDELALISIB]
Out: 35

***
In: Please look up its Population Hoechst High Intensity Objects (%): "C=CC(=O)Nc1cc(-n2c(=O)ccc3cnc4ccc(-c5ccc(NS(C)(=O)=O)cc5)cc4c32)ccc1C"
Out: 2

In: Please look up its Population Hoechst High Intensity Objects (%): "Cc1c(P(=S)(c2ccccc2)c2ccccc2)n2ccccc2[n+]1C/C=C/c1ccccc1.[Br-]"
Out: 33

In: Please look up its Population Hoechst High Intensity Objects (%): CC(Cc1ccc(O)c(O)c1)C(C)Cc1ccc(O)c(O)c1 (configuration not stated) [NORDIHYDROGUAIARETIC ACID]
Out: 7

In: Please look up its Population Hoechst High Intensity Objects (%): "CN(c1cc(C(F)(F)F)nc(OCCC(=O)O)n1)c1cccc2c1CCC2"
Out: 8

In: Please look up its Population Hoechst High Intensity Objects (%): CN1C(=O)[C@@H](NC(=O)c2cc3ccccc3[nH]2)N=C(c2ccccc2)c2ccccc21 [DEVAZEPIDE]
Out: 1

In: Please look up its Population Hoechst High Intensity Objects (%): Oc1cccc(-c2nc(N3CCOCC3)c3oc4ncccc4c3n2)c1 [PI-103]
Out: 6

In: Please look up its Population Hoechst High Intensity Objects (%): CC(C)[C@H](CO)Nc1nc(Nc2cccc(Cl)c2)c2ncn(C(C)C)c2n1 [PURVALANOLA]
Out: 6

In: Please look up its Population Hoechst High Intensity Objects (%): C[C@@H](Oc1cc(-n2cnc3ccc(CN4CCN(C)CC4)cc32)sc1C(N)=O)c1ccccc1C(F)(F)F [GSK-461364]
Out: 4

In: Please look up its Population Hoechst High Intensity Objects (%): "Cc1c(Nc2ccc(S(=O)(=O)N3CCN(C)CC3)cc2F)nc2ccc(-c3cnn(C4CC4)c3)cn2c1=O"
Out: 20

In: Please look up its Population Hoechst High Intensity Objects (%): "CCCc1cc(C)[nH]c(=O)c1CNC(=O)c1cc(-c2ccc(N3CCN(C(C)C)CC3)nc2)cc2c1cnn2C(C)C"
Out: 10

###

Test system: HEK-293T
ASSAY_PROCEDURE: Multiplex assay against HEK293T
Format: toxicity, cell-based
PROTOCOL_CONDITIONS: human, 24 h, 1 µM, compound concentration 1 uM, replicate 2
RECORDED_ENDPOINT: Population Mitochondria Different-Phenotype (%)
// note: answer is a bare numeric in %

# example entries with known answers
In: Please look up its Population Mitochondria Different-Phenotype (%): "Cc1c(Nc2ccc(S(=O)(=O)N3CCN(C)CC3)cc2F)nc2ccc(Nc3cnn(C4CC4)c3)cn2c1=O"
Out: 16

In: Please look up its Population Mitochondria Different-Phenotype (%): "CC(C)[C@H](CO)Nc1nc(Nc2cccc(Cl)c2)c2ncn(C(C)C)c2n1"
Out: 26

In: Please look up its Population Mitochondria Different-Phenotype (%): "N#Cc1cccc(C(=O)Nc2cc(-c3ccccc3)nn2-c2ccccc2)c1"
Out: 21

In: Please look up its Population Mitochondria Different-Phenotype (%): "CCCc1cc(C)[nH]c(=O)c1CNC(=O)c1cc(-c2ccc(N3CCN(C(C)C)CC3)nc2)cc2c1cnn2C(C)C"
Out: 94

In: Please look up its Population Mitochondria Different-Phenotype (%): CC(Cc1ccc(O)c(O)c1)C(C)Cc1ccc(O)c(O)c1 (stereo unspecified) [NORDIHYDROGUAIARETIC ACID]
Out: 11

In: Please look up its Population Mitochondria Different-Phenotype (%): "N#CCNC(=O)c1ccc(-c2ccnc(Nc3ccc(N4CCOCC4)cc3)n2)cc1"
Out: 9

In: Please look up its Population Mitochondria Different-Phenotype (%): "Cc1c(Nc2ccc(S(=O)(=O)N3CCN(C)CC3)cc2F)nc2ccc(-c3cnn(C4CC4)c3)cn2c1=O"
Out: 2

In: Please look up its Population Mitochondria Different-Phenotype (%): "Oc1cccc(-c2nc(N3CCOCC3)c3oc4ncccc4c3n2)c1"
Out: 59

***
In: Please look up its Population Mitochondria Different-Phenotype (%): CN1C(=O)[C@@H](NC(=O)c2cc3ccccc3[nH]2)N=C(c2ccccc2)c2ccccc21 [DEVAZEPIDE]
Out: 20

In: Please look up its Population Mitochondria Different-Phenotype (%): "CCOC(=O)CCNc1cc(N2CCc3ccccc3CC2)nc(-c2ccccn2)n1"
Out: 1

In: Please look up its Population Mitochondria Different-Phenotype (%): CCCCCNC(=N)N/N=C/c1c[nH]c2ccc(OC)cc12.O=C(O)/C=C\C(=O)O [TEGASEROD MALEATE]
Out: 46

###

System: HEK-293T
ASSAY_PROCEDURE: Multiplex assay against HEK293T;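 on Population Tubulin-Different-Phenotype (%): share of the cells with healthy nuclei that show this phenotype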
Assay type: toxicity, cell-based
PROTOCOL_CONDITIONS: human, 24 h, 1 µM, compound concentration 1 uM, replicate 2
RECORDED_ENDPOINT: Population Tubulin-Different-Phenotype (%)
// note: answer is a bare numeric in %

In: Please look up its Population Tubulin-Different-Phenotype (%): "N#Cc1cccc(C(=O)Nc2cc(-c3ccccc3)nn2-c2ccccc2)c1"
Out: 45

***
In: Please look up its Population Tubulin-Different-Phenotype (%): "Cc1ccc(S(=O)(=O)NC2c3ccccc3Oc3ccccc32)cc1"
Out: 29

In: Please look up its Population Tubulin-Different-Phenotype (%): CC(C)[C@H](CO)Nc1nc(Nc2cccc(Cl)c2)c2ncn(C(C)C)c2n1 [PURVALANOLA]
Out: 36

In: Please look up its Population Tubulin-Different-Phenotype (%): "C=CC(=O)Nc1cc(-n2c(=O)ccc3cnc4ccc(-c5ccc(NS(C)(=O)=O)cc5)cc4c32)ccc1C"
Out: 32

In: Please look up its Population Tubulin-Different-Phenotype (%): Cl.Cn1c2c(c3ccc(Cl)c(Cl)c31)C(C#N)C1(CCNCC1)NC2=O (stereo unspecified)
Out: 11

In: Please look up its Population Tubulin-Different-Phenotype (%): N#CCNC(=O)c1ccc(-c2ccnc(Nc3ccc(N4CCOCC4)cc3)n2)cc1 [MOMELOTINIB]
Out: 18

In: Please look up its Population Tubulin-Different-Phenotype (%): "CC(C)c1cc(Nc2nc(N3CCC[C@H](N)C3)ncc2C(N)=O)cc(C(C)C)n1"
Out: 96

In: Please look up its Population Tubulin-Different-Phenotype (%): CC(Cc1ccc(O)c(O)c1)C(C)Cc1ccc(O)c(O)c1 (stereo unspecified) [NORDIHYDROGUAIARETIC ACID]
Out: 12

In: Please look up its Population Tubulin-Different-Phenotype (%): CCOc1ccn(-c2ccc(F)cc2)c(=O)c1C(=O)Nc1ccc(Oc2ccnc(N)c2Cl)c(F)c1 [BMS-777607]
Out: 70

In: Please look up its Population Tubulin-Different-Phenotype (%): "Cc1ccc(NC(=O)Nc2cc(C(F)(F)F)ccc2F)cc1Nc1ccc2c(c1)NC(=O)/C2=C\c1ccc[nH]1"
Out: 68

In: Please look up its Population Tubulin-Different-Phenotype (%): "CCCc1cc(C)[nH]c(=O)c1CNC(=O)c1cc(-c2ccc(N3CCN(C(C)C)CC3)nc2)cc2c1cnn2C(C)C"
Out: 94

In: Please look up its Population Tubulin-Different-Phenotype (%): "CCOC(=O)CCNc1cc(N2CCc3ccccc3CC2)nc(-c2ccccn2)n1"
Out: 6

In: Please look up its Population Tubulin-Different-Phenotype (%): C[C@@H](Oc1cc(-n2cnc3ccc(CN4CCN(C)CC4)cc32)sc1C(N)=O)c1ccccc1C(F)(F)F [GSK-461364]
Out: 75

In: Please look up its Population Tubulin-Different-Phenotype (%): NC(=O)c1ccc2nc(-c3ccc(C4(N)CCC4)cc3)c(-c3ccccc3)n2n1 [BAY-1125976]
Out: 42

In: Please look up its Population Tubulin-Different-Phenotype (%): "Cc1c(P(=S)(c2ccccc2)c2ccccc2)n2ccccc2[n+]1C/C=C/c1ccccc1.[Br-]"
Out: 85

In: Please look up its Population Tubulin-Different-Phenotype (%): "CC(/C=C1\SC(=S)N(CCCC(=O)Nc2ccc(C(=O)O)c(O)c2)C1=O)=C\c1ccccc1"
Out: 30

In: Please look up its Population Tubulin-Different-Phenotype (%): "Cc1c(Nc2ccc(S(=O)(=O)N3CCN(C)CC3)cc2F)nc2ccc(Nc3cnn(C4CC4)c3)cn2c1=O"
Out: 83

In: Please look up its Population Tubulin-Different-Phenotype (%): CC[C@H](Nc1ncnc2[nH]cnc12)c1nc2cccc(F)c2c(=O)n1-c1ccccc1 [IDELALISIB]
Out: 68
